MEASUREMENT NOTES: folding enthalpy; higher = less favourable; fluorescence melt of hairpins on a sequencing array, two-state fit
PROTOCOL CONDITIONS: sodium 0.088 M
# binarize folding enthalpy: threshold -30 kcal/mol inclusive, high side label 1, low side label 0

{"columns": ["PRIMARY SEQUENCE", "LABEL VALUE"],
 "data": [
  ["CGCACCGGAAACGGAGCG (((.(((....))).)))", "label 0"],
  ["GGCCTTGGAAACAGGGCC ((((.((....)).))))", "label 0"],
  ["GTAGTGAAAACTAC (((((....)))))", "label 1"],
  ["GATAGGGGAAACTCTATC (((((.(....).)))))", "label 0"],
  ["GAGGACGAAAGTCACCTC ((((((....)))..)))", "label 1"],
  ["GGATCTTCGAAAGAATCC (((..(((....))))))", "label 1"],
  ["GATCCCTGAAGGGATC ((((((....))))))", "label 0"]
]}

---

Quick reference for Tm among some sequences
MEASUREMENT NOTES: melting temperature; fluorescence melt of hairpins on a sequencing array, two-state fit, raised by 9.35 °C to match UV melts
PROTOCOL CONDITIONS: sodium 0.088 M

{"columns": ["PRIMARY SEQUENCE", "Tm / °C"],
 "data": [
  ["CCAGGGAAACCTGG (((((....)))))", 53],
  ["GCGAAAGTCGC ((((...))))", 43.8],
  ["GGTCACGAAAGTGTGACC ((((((....)))..)))", 56.3]
]}

---

Quick reference for folding enthalpy among some sequences
MEASUREMENT NOTES: folding enthalpy; higher = less favourable; fluorescence melt of hairpins on a sequencing array, two-state fit
PROTOCOL CONDITIONS: sodium 0.088 M

{"columns": ["PRIMARY SEQUENCE", "folding enthalpy, kcal/mol"],
 "data": [
  ["GCGTACGACGC ((((...))))", -23.8],
  ["TAGACGAAAGTCTA (((((....)))))", -15.3],
  ["TTCTCGAAAGAGAA (((((....)))))", -15.2],
  ["GATCTGGGCCCAGATC ((((((....))))))", -56.3],
  ["GATCCTTCAGAGGATC ((((((....))))))", -48.2],
  ["GCCTGCACGAAAGTGGGC (((..(((....))))))", -20.3],
  ["GCTGTGCGAAAGCATAGC (((.(((....))).)))", -57.9],
  ["GGGCTGGGAAACCAGCTC (.(((((....))))).)", -26.6],
  ["GCGCCCGCGAAAGCGCGC (((..(((....))))))", -16.2],
  ["GCCACGCGAAAGCTTCGC ((.(.((....)).).))", -7.03],
  ["GTCTAAACGAAAGTTGAC (((..(((....))))))", -17.7],
  ["GGGATGGGAAACCACCCC (((.(((....))).)))", -32],
  ["GCTTTCGGAAACGAAGGC ((.((((....)))).))", -35.3],
  ["GACGACGGAAACGTCACC (..((((....))))..)", -11.5],
  ["GCCGAGCGAAAGCTCAGC ((.((((....)))).))", -18.1],
  ["GGGCCCGAAAGGGCGCCC ((((((....)))..)))", -9.86],
  ["GTACACGAAAGTGCTAC ((((((....))).)))", -15.9],
  ["GCATTTGGAAACGAATGC (((((.(....).)))))", -41.8],
  ["GGAGCTACGAAAGTATCC (((..(((....))))))", -5.61],
  ["GCCCGGCGAAAGCCTTGC ((..(((....)))..))", -8.46],
  ["GCCTATCGAAAGATCGGC (((.(((....))).)))", -41.7],
  ["GCAAGCCGAAAGGCTGC (((.(((....))))))", -18.8],
  ["GACACGGCGAAAGCCGTC (((..(((....))))))", -6.25],
  ["GGGATCGAAAGATATCCC ((((((....)))..)))", -25],
  ["GCCTTTCGAAAGAAGGGC (((.(((....))).)))", -47.5],
  ["GATCGAACGATCGATC ((((((....))))))", -18.9],
  ["GACATCCGAAAGGACGTC (((.(((....))).)))", -37],
  ["GAAACGCGAAAGCGCTTC (((.(((....))).)))", -18.7],
  ["GGCATTGCGAAAGCAGCC (((..(((....))))))", -16.4],
  ["GACCACGAAAGTGGTGTC ((((((....)))..)))", -12.2],
  ["GATCGCTAACGCGATC ((((((....))))))", -35.7],
  ["GATCGGTGTTCCGATC ((((((....))))))", -41.3],
  ["ATCATGAAAATGAT (((((....)))))", -13.8],
  ["GCACAAGGAAACTTATGC (((.(((....))).)))", -18.7],
  ["GGCCCCGAAAGGGTTGCC ((((((....)))..)))", -16.3],
  ["GGTCATGGAAACACGACC ((((.((....)).))))", -37.1],
  ["GCTACGGGAAACCGCAAC (.(.(((....))).).)", -9.56]
]}

---

MEASUREMENT NOTES: folding enthalpy; higher = less favourable; fluorescence melt of hairpins on a sequencing array, two-state fit
PROTOCOL CONDITIONS: sodium 0.088 M
# binarize folding enthalpy: threshold -30 kcal/mol inclusive, high side T, low side F

{"columns": ["PRIMARY SEQUENCE", "LABEL VALUE"],
 "data": [
  ["GCGAAGCGAAAGCCGCGC (((..((....))..)))", "T"],
  ["GGCTACGGAAACGTAACC ((.((((....)))).))", "T"],
  ["GTTCCACGAAAGTGCAAC (((.(((....))).)))", "T"],
  ["GGGGGAGGAAACTCCTCC ((.((((....)))).))", "T"],
  ["CGAAACGGAAACGTGTCG (((.(((....))).)))", "F"],
  ["GCCAGGCGAAAGCCCAGC ((..(((....)))..))", "T"],
  ["GGCAACCGAAAGGTAGCC (((.(((....))).)))", "F"],
  ["GTTTGGGGAAACCCGAAC (((.(((....))).)))", "F"],
  ["GATAGCGAAAGCTATC ((((((....))))))", "F"],
  ["GATCTACTGGTAGATC ((((((....))))))", "F"],
  ["GATCCCTCAAGGGATC ((((((....))))))", "F"],
  ["GATCTGAATACAGATC ((((((....))))))", "F"],
  ["CGTGCGGAAACGCGAACG ((((((....)))..)))", "T"],
  ["GCTAGGGGAAACCCTGGC ((.((((....)))).))", "F"],
  ["GAGCCCCGAAAGGGACTC (((.(((....))).)))", "F"],
  ["GTATACGAAAGTACTAC ((((((....))).)))", "T"],
  ["GTACTGCGAAAGCAATAC (((.(((....))).)))", "T"],
  ["GCTACGCGAAAGCGCAGC (((.(((....))).)))", "F"],
  ["GTTCCCCCGAAAGGGAAC (((..(((....))))))", "F"],
  ["GGGCAGACGAAAGTCCCC (((..(((....))))))", "T"],
  ["GATCTATGTTAGATC ((((((...))))))", "T"],
  ["GATCTTCACAAGATC ((((((...))))))", "T"],
  ["GTTTATGGAAACATAGAC ((.((((....)))).))", "T"],
  ["GCGTTTCGAAAGAATCGC (((.(((....))).)))", "F"],
  ["GCACCCGGAAACGGACGC ((..(((....)))..))", "T"],
  ["GCTCCAGGAAACCGGAGC (((((.(....).)))))", "F"],
  ["GAGGGCGGAAACGCCTTC ((.((((....)))).))", "T"],
  ["GATCCTGGGTAGGATC ((((((....))))))", "F"],
  ["GGCACCGAAAGGTGTGCC ((((((....)))..)))", "T"],
  ["GATCTATCGTTAGATC ((((((....))))))", "T"],
  ["GATCTAGATTAGATC ((((((...))))))", "T"],
  ["GGTTGGTCGAAAGACACC (((..(((....))))))", "T"],
  ["GTTCTGGGAAACCAGAGC (.(((((....))))).)", "T"],
  ["GATAGGCGAAAGCCGATC (((.(((....))).)))", "T"],
  ["GGTGCGGGAAACTGCACC (((((.(....).)))))", "F"],
  ["GATCAGGCACTGATC ((((((...))))))", "F"],
  ["GTTGGGAAACCAAC (((((....)))))", "T"],
  ["GCAAGAGGAAACCCTTGC (((((.(....).)))))", "T"],
  ["GGCGAGCGAAAGCTGGCC (((.(((....))).)))", "F"],
  ["GCTTCGCGAAAGCACAGC (((..((....))..)))", "T"],
  ["GCACTGCGAAAGCCGTGC ((((.((....)).))))", "F"],
  ["GAAGGGCGAAAGCCTTTC (((.(((....))).)))", "T"],
  ["GAACCCGAAAGGGTATTC ((((((....)))..)))", "T"],
  ["GTCCGACGAAAGTCGAC (((.(((....))))))", "T"],
  ["GATCCTCTGGAGGATC ((((((....))))))", "F"]
]}
